# System: STA-ET-1 Ewing's sarcoma cells
# Method description: Cell viability assay (7AAD, 48 hours), STA-ET-1
# Format: cell-based
# Details: 48 hours exposure; read-out: Cancer cell lines IC50 (μM) STA-ET-1
Observable: IC50 (µM)

CC(C)CC1NC(=O)C(NC(=O)OCc2ccccc2)CCCCn2cc(nn2)COc2ccc(cc2)CC(C=O)NC1=O (stereo not drawn) [Compound 4a]	37.6

P = C#CCOc1ccc(C[C@@H](C=O)NC(=O)[C@H](CC(C)C)NC(=O)[C@H](CN=[N+]=[N-])NC(=O)OCc2ccccc2)cc1 [Compound 1]
Q = C#CCOc1ccc(C[C@@H](C=O)NC(=O)[C@H](CC(C)C)NC(=O)[C@H](CCCN=[N+]=[N-])NC(=O)OCc2ccccc2)cc1 [Compound 3]
// compare: P vs Q , metric IC50, want the smaller Label of pick, please.
Q
(Q: 2.6 µM, P: 6.5 µM)

----------
# System: TC-252 Ewing's sarcoma cells
# Method description: Cell viability assay (7AAD, 48 hours), TC-252
# Type: cell-based
# Details: 48 hours exposure; read-out: Cancer cell lines IC50 (μM) TC-252
Observable: IC50 (µM)

C#CCOc1ccc(C[C@@H](C=O)NC(=O)[C@H](CC(C)C)NC(=O)[C@H](CCN=[N+]=[N-])NC(=O)OCc2ccccc2)cc1 [Compound 2]	2.3

P = C#CCOc1ccc(C[C@@H](C=O)NC(=O)[C@H](CC(C)C)NC(=O)[C@H](CCCCN=[N+]=[N-])NC(=O)OCc2ccccc2)cc1 [Compound 4]
Q = CC(C)C[C@H](NC(=O)[C@H](Cc1ccccc1)NC(=O)c1cnccn1)B(O)O [Bortezomib, reference compound]
Given the listed records, identify the one among P and Q with higher IC50. Label of pick, please.
P
(P: 1.6 µM, Q: 0.01 µM)

----------
// IC50 lookup, one value per entry
# System under test: 20S proteasome CP-L activity (Oryctolagus cuniculus)
# Construct: Purified rabbit 20S proteasome
# Sequence (A0A5F9DQW2 1-212): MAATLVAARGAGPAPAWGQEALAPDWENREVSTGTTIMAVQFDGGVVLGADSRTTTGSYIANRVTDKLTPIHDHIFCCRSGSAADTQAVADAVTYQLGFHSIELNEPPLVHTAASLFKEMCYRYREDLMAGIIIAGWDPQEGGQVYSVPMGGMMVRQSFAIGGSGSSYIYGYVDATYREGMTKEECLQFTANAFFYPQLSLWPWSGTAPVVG
# Method description: In vitro proteasome activity assay, CP-L (Z-nLPnLD-AMC)
# Assay type: biochemical, rabbit
# Details: purified 20S proteasome; highest concentration tested 25,000 nM
Where a SMILES comes first, the peptide text is derived from it. The star is where a group is joined. Cbz = O=C(OCc1ccccc1)*

Here's what some known entries look like.
CC(C)C[C@H](NC(=O)[C@H](Cc1ccccc1)NC(=O)c1cnccn1)B(O)O [Bortezomib, reference compound]	438 nM
CC(C)CC1NC(=O)C(NC(=O)OCc2ccccc2)CCCCn2cc(nn2)COc2ccc(cc2)CC(C=O)NC1=O (stereo not drawn) [Compound 4a]	> 25000 nM
CC(C)C[C@@H](C=O)NC(=O)[C@H](CC(C)C)NC(=O)[C@H](CC(C)C)NC(=O)OCc1ccccc1 [MG132, reference compound] (Cbz-Leu-Leu-Leu-aldehyde)	545 nM
C#CCOc1ccc(C[C@@H](C=O)NC(=O)[C@H](CC(C)C)NC(=O)[C@H](Cc2ccc(N=[N+]=[N-])cc2)NC(=O)OCc2ccccc2)cc1 [Compound 6]	> 25000 nM
C#CCOc1ccc(C[C@@H](C=O)NC(=O)[C@@H](NC(=O)[C@H](CCCCN=[N+]=[N-])NC(=O)OCc2ccccc2)[C@@H](C)CC)cc1 [Compound 5]	> 25000 nM
C#CCOc1ccc(C[C@@H](C=O)NC(=O)[C@H](CC(C)C)NC(=O)[C@H](CCCN=[N+]=[N-])NC(=O)OCc2ccccc2)cc1 [Compound 3]	> 25000 nM
C#CCOc1ccc(C[C@@H](C=O)NC(=O)[C@H](CC(C)C)NC(=O)[C@H](CCN=[N+]=[N-])NC(=O)OCc2ccccc2)cc1 [Compound 2]	> 25000 nM
C#CCOc1ccc(C[C@@H](C=O)NC(=O)[C@H](CC(C)C)NC(=O)[C@H](CCCCN=[N+]=[N-])NC(=O)OCc2ccccc2)cc1 [Compound 4]	> 25000 nM

Let's switch to this compound now.
Need IC50, item C#CCOc1ccc(C[C@@H](C=O)NC(=O)[C@H](CC(C)C)NC(=O)[C@H](CN=[N+]=[N-])NC(=O)OCc2ccccc2)cc1 [Compound 1]
> 25000 nM

This collection of values is drawn from patent US20150299250A1.
